The origin of these recorded values is patent US11629143B2.

- study.target: MUSK (Homo sapiens)
- Sequence (O15146 24-869, species assumed): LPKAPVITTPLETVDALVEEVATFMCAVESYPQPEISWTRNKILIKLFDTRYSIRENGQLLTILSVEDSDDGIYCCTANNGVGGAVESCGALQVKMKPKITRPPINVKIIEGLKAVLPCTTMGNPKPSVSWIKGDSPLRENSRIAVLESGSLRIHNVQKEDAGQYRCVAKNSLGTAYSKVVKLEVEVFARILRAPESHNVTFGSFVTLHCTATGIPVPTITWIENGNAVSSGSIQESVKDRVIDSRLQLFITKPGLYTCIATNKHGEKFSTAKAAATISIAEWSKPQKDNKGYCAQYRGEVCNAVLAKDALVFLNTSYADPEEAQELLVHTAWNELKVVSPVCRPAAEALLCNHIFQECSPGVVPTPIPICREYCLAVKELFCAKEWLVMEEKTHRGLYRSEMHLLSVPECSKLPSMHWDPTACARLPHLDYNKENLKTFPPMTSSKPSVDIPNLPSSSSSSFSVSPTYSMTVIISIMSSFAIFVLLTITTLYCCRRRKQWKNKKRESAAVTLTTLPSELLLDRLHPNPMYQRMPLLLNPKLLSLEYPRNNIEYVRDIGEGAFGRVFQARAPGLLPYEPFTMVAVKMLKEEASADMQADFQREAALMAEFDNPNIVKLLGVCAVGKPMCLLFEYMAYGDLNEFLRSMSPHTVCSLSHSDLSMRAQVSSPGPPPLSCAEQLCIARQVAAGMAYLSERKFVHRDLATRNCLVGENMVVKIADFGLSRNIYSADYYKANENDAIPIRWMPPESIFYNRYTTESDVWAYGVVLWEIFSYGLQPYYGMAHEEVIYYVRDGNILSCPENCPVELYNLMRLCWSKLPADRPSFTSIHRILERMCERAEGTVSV
- test: Kinase panel (mobility shift)
- Assay type: biochemical

# item.smiles, inhibition at 5 µM
records = [
    ("CSc1nc(C(=O)Nc2ccc(Oc3ccnc(C(=O)NC4COC4)c3)c(F)c2)c(-c2ccc(F)cc2)o1", "< 50%"),
    ("CNC(=O)c1cc(Oc2ccc(NC(=O)c3nc(NC)sc3-c3ccc(F)cc3C)cc2F)ccn1", "< 50%"),
    ("CSc1nc(C(=O)Nc2ccc(Oc3ccnc(C(=O)NC4COC4)c3)c(F)c2)c(-c2ccc(F)c(F)c2)o1", "< 50%"),
]

* * *

- study.target: KIT (Homo sapiens)
- Sequence (P10721 26-976, species assumed): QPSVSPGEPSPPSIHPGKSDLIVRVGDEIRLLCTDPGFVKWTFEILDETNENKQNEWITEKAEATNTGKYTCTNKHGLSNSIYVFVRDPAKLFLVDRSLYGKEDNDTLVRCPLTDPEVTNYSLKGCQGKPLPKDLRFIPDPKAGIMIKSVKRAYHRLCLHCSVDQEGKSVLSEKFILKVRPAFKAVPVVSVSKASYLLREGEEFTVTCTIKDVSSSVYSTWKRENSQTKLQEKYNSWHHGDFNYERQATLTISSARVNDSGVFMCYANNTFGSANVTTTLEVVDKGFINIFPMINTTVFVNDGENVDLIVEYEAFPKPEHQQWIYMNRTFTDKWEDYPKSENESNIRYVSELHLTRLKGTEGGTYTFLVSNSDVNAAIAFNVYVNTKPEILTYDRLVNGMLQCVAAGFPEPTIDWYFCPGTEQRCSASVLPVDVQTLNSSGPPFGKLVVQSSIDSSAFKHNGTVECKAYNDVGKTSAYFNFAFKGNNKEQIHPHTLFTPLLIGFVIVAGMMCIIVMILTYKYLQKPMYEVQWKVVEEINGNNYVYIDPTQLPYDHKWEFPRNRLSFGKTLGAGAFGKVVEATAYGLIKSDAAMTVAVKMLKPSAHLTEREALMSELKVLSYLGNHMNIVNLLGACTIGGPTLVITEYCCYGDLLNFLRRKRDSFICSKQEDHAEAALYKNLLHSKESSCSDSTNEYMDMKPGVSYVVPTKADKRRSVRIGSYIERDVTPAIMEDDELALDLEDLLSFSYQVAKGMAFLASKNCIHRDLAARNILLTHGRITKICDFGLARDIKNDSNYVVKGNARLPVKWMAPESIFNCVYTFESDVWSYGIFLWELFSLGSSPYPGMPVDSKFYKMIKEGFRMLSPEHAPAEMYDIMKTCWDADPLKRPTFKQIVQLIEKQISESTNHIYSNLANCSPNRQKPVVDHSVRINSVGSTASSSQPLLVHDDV
- test: Kinase panel (mobility shift)
- Type: biochemical
Listed next: entries and their corresponding inhibition at 5 µM.
readout.kind: inhibition at 5 µM

# compound, study.target, reported.measurement
measured = [
    ("CNC(=O)c1cc(Oc2ccc(NC(=O)c3nc(OC)oc3-c3ccc(F)cc3)cc2F)ccn1 [Compound 15]", "KIT (Homo sapiens)", "50 to 79%"),
    ("CNC(=O)c1cc(Oc2ccc(NC(=O)c3nc(NC)oc3-c3ccc(F)cc3)cc2F)ccn1 [Compound 14]", "KIT (Homo sapiens)", "50 to 79%"),
    ("CNC(=O)c1cc(Oc2ccc(NC(=O)c3nc(OC4CC4)oc3-c3ccc(F)cc3)cc2F)ccn1 [Compound 32]", "KIT (Homo sapiens)", "< 50%"),
    ("CSc1nc(C(=O)Nc2ccc(Oc3ccnc(N)c3Cl)c(F)c2)c(-c2ccc(F)cc2)o1 [Compound 1]", "KIT (Homo sapiens)", "< 50%"),
    ("CNC(=O)c1cc(Oc2ccc(NC(=O)c3nc(SC)oc3-c3ccc(F)cc3Cl)cc2)ccn1 [Compound 3]", "KIT (Homo sapiens)", "50 to 79%"),
    ("CSc1nc(C(=O)Nc2ccc(Oc3ccnc(C(=O)NC4CNC4)c3)c(F)c2)c(-c2ccc(F)s2)o1 [Compound 27]", "KIT (Homo sapiens)", "< 50%"),
    ("COc1nc(C(=O)Nc2ccc(Oc3ccnc(C(=O)NCC(F)(F)F)c3)c(F)c2)c(-c2ccc(F)cc2)o1 [Compound 43]", "KIT (Homo sapiens)", "< 50%"),
    ("CNC(=O)c1cc(Oc2ccc(NC(=O)c3nc(SC)oc3-c3ccc(F)c(F)c3)cc2)ccn1 [Compound 4]", "KIT (Homo sapiens)", "50 to 79%"),
    ("CNC(=O)c1cc(Oc2ccc(NC(=O)c3nc(NC)sc3-c3ccc(F)cc3F)cc2F)ccn1 [Compound 21]", "KIT (Homo sapiens)", "< 50%"),
]
